method: Volume of distribution at steady state in Sprague-Dawley rat at 1 mg/kg, iv and 2 mg/kg, po
Assay type: ADME, organism-based
condition-set: in vivo, read-out: Vdss
parameter-measured: Vd (L/kg)
Please state the figure in L/kg; there is no need to write the unit.

Input line: For the molecule O=C1OCc2cc(CCN3CCN(C(=O)Cc4ccc(-n5cnnn5)cc4)CC3)ccc21 , what Vd is on record?
Output line: 0.66

Input line: Then what about the molecule O=C1OCCc2cc(CCN3CCN(C(=O)Cc4ccc(-n5cnnn5)cc4)CC3)ccc21 ?
Output line: 1.3

* * *

Consider the following compounds; for each one, report its bioavailability.
method: Oral bioavailability in Sprague-Dawley rat 2 mg/kg
Assay type: ADME, organism-based
condition-set: in vivo
Please state the figure in %; there is no need to write the unit.

Input line: For the compound O=C1OCc2cc(CCN3CCN(C(=O)Cc4ccc(-n5cnnn5)cc4)CC3)ccc21 , what bioavailability is on record?
Output line: 33

Input line: Then what about the compound O=C1OCCc2cc(CCN3CCN(C(=O)Cc4ccc(-n5cnnn5)cc4)CC3)ccc21 ?
Output line: 52
